# SYSTEM NAME: T1, human Fc-His-FBG (human, UniProt P24821 1974-2201)
# T1 sequence: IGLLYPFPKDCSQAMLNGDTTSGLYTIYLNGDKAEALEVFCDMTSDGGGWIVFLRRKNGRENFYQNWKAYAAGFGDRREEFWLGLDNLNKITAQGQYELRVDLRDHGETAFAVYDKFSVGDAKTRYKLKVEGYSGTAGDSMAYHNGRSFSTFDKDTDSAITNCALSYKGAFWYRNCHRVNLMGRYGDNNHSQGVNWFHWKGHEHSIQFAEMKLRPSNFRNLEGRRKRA
# ASSAY NAME: cell-based or functional assay
REPORTED PROPERTY: IC50, inhibition of Fc-His-HuFBG-evoked IL-8 release, THP1-Blue cells (nM)
Give the value in nM but do not write nM after it.

Dear colleague, I am looking for the recorded IC50, inhibition of Fc-His-HuFBG-evoked IL-8 release, THP1-Blue cells of the following binder: Fab B12 (Fab, V domains shown, monomeric Fab) VH: QVQLVESGGGLVQPGRSLRLSCAASGFTFDDYAMHWVRQAPGKGLEWVSGISGSGGSTYYADSVKGRFTISRDNAKNSLYLQMNSLRAEDTALYYCAKDISAVPDTFDIWGQGTMVTVSS VL: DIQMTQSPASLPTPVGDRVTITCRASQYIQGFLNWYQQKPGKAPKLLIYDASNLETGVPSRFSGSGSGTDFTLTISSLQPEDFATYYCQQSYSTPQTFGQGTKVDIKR
6.9

Where these numbers come from: patent US20170306005A1
